Provenance of the data: patent US20170081400A1

target_under_test: T1, human TL1A extracellular domain with N-terminal HIS and FLAG tag (human, UniProt O95150 72-251)
T1 construct: whole entry named. ~70 kDa fraction purified by gel filtration
T1 sequence: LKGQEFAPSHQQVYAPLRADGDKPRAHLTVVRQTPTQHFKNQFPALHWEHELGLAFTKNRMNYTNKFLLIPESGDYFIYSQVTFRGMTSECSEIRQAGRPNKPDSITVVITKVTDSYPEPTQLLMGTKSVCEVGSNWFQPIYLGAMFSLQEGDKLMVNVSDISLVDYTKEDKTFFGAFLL
experiment_notes: SPR run 2; supernatant on Protein A; TL1A 10 ug/mL; timepoint 220
recorded_metric: TL1A Binding Level (Late) (RU)
Return type: number; implicit unit RU.

Asked: May I ask what TL1A Binding Level (Late) has been recorded for 320-218 (antibody, human IgG1, name in Kabat numbering, V domains shown, human IgG1, lambda) VH: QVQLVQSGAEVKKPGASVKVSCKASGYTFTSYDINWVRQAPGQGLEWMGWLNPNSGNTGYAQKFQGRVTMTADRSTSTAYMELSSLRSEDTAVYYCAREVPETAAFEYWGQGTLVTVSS VL: QSVLTQPPSVSGAPGQRVTISCTSSQSDIGAGLGVHWYQQLPGTAPKLLIEGYYNRPSGVPDRFSGSKSGTSASLTITGLLPEDEGDYYCQSYDGTLSALFGGGTKLTVLG ?
Given back: 218

Asked: Tell me the measured TL1A Binding Level (Late) of 320-192 (antibody, human IgG1, name in Kabat numbering, V domains shown, human IgG1, lambda) VH: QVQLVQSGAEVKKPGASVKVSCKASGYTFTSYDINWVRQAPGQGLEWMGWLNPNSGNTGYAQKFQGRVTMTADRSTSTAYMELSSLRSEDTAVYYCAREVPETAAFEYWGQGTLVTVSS VL: QSVLTQPPSVSGAPGQRVTISCASSSSDIGAGLGVHWYQQLPGTAPKLLIEGYYNRPSGVPDRFSGSKSGTSASLTITGLLPEDEGDYYCQSYDGTLSALFGGGTKLTVLG , please.
Given back: 218
